Every entry's value here was drawn from patent US12214036B2.

- TARGET_DESC: MER (Homo sapiens, UniProt Q12866)
- Sequence (Q12866 21-999): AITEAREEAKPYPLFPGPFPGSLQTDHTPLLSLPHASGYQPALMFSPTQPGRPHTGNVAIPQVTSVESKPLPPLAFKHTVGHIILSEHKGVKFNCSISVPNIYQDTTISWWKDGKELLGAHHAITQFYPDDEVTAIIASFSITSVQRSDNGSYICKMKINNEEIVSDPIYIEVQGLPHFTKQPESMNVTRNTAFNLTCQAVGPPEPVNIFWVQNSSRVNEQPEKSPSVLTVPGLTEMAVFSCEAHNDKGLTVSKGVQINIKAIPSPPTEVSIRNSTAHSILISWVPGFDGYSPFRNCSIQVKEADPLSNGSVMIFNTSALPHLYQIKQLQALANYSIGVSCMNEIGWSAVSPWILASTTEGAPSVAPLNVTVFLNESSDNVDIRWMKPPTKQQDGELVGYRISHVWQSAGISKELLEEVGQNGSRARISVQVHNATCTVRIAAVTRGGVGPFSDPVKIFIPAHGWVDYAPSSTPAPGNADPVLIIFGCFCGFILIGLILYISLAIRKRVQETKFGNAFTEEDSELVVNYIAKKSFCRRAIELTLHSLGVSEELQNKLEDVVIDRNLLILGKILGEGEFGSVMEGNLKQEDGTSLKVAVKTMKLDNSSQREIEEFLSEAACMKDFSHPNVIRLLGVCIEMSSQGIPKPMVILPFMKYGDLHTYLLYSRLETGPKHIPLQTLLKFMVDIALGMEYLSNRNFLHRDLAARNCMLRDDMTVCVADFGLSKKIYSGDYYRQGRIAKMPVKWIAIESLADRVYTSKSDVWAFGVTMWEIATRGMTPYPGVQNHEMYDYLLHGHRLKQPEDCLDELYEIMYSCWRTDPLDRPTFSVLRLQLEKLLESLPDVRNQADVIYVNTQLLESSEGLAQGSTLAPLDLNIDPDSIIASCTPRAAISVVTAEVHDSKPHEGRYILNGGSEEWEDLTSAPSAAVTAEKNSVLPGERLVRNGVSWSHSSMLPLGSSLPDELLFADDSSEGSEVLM
- EXPERIMENT_SUMMARY: Phospho-MER inhibition assay in G361 cells (ELISA)
- Format: cell-based
- Design: G361 cells, a melanoma cell line expressing high level of MER kinase; endogenous in cells; host or cells: G361
- MEASUREMENT_PARAMETERS: G361 melanoma cells, N=2 (FIG. 3); read-out: IC50, MER phosphorylation induced by MAB8912
pIC50: −log10 of the molar value.
READOUT_KIND: pIC50

> print(dat)
                                   compound  readout.kind  value.measured
1  CC(C)C(=O)N1CCC(c2cc(-c3ccc(NC(=O)c4cn(C(C)C)c(=O)n(-c5ccccn5)c4=O)cc3)c3c(N)ncnn23)CC1 [Compound 1]         pIC50            8.08

----------
- TARGET_DESC: TYRO3 (Homo sapiens, UniProt Q06418)
- Construct: recombinant phosphorylated forms of the kinase domains for AXL, MER and TYRO3
- Sequence (Q06418 518-790 limits assumed): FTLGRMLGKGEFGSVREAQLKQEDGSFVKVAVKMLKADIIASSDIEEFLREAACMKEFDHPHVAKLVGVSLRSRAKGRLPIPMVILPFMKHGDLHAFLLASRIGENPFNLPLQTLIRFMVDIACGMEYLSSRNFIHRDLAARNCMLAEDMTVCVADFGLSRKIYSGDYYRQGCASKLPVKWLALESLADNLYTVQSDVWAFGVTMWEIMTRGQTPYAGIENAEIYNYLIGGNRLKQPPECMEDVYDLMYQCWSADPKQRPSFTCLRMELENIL
- EXPERIMENT_SUMMARY: TR-FRET kinase assay, TYRO3
- MEASUREMENT_PARAMETERS: average from multiple lots, n=25; read-out: IC50 against TYRO3
pIC50: −log10 of the molar value.
READOUT_KIND: pIC50

> print(dat)
                                   molecule  readout.kind  value.measured
1  CC(C)C(=O)N1CCC(c2cc(-c3ccc(NC(=O)c4cn(C(C)C)c(=O)n(-c5ccccn5)c4=O)cc3)c3c(N)ncnn23)CC1         pIC50            7.00
